# Ki per entry
molecular target: MAPK14 (human) (UniProt Q16539); assay: Inhibition of MAPK14 Kinase Activity
Sequence (Q16539 whole entry, looked up): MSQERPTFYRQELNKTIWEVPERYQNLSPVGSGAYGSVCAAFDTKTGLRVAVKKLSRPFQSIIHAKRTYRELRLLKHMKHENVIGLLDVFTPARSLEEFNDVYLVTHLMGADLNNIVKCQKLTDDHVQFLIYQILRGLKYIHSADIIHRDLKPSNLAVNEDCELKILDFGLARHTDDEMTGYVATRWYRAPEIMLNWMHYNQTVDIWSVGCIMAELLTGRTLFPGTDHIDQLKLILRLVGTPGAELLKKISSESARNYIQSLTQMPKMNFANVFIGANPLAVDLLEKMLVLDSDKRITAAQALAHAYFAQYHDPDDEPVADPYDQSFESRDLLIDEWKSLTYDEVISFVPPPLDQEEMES
Readout Label: Ki (nM)

[[record]]
structure = "Cc1ccc(C(=O)Nc2ccon2)cc1Nc1ncnc(NC(C)C)c1C#N"
measurement_target = "MAPK14 (human) (UniProt Q16539)"
measurement_unit = "nM"
observed_measurement = 0.41

[[record]]
structure = "CNc1ncnc(Nc2cc(C(=O)NOC)ccc2C)c1C#N"
measurement_target = "MAPK14 (human) (UniProt Q16539)"
measurement_unit = "nM"
observed_measurement = 16

[[record]]
structure = "CCn1nccc1NC(=O)c1ccc(C)c(Nc2nc(N)nc(NC3CCCC3)c2C#N)c1"
measurement_target = "MAPK14 (human) (UniProt Q16539)"
measurement_unit = "nM"
observed_measurement = 1.9

[[record]]
structure = "Cc1ccc(C(=O)Nc2ccon2)cc1Nc1nc(N)nc(NC2CCCC2)c1C#N"
measurement_target = "MAPK14 (human) (UniProt Q16539)"
measurement_unit = "nM"
observed_measurement = 0.16

[[record]]
structure = "CONC(=O)c1ccc(C)c(Nc2ncnc(NC(C)C)c2C#N)c1"
measurement_target = "MAPK14 (human) (UniProt Q16539)"
measurement_unit = "nM"
observed_measurement = 0.61

[[record]]
structure = "CCn1nccc1NC(=O)c1ccc(C)c(Nc2ncnc(NC3CCCC3)c2C#N)c1"
measurement_target = "MAPK14 (human) (UniProt Q16539)"
measurement_unit = "nM"
observed_measurement = 14

[[record]]
structure = "CCn1nccc1NC(=O)c1ccc(C)c(Nc2nc(N)nc(NC(C)C)c2C#N)c1"
measurement_target = "MAPK14 (human) (UniProt Q16539)"
measurement_unit = "nM"
observed_measurement = 1.5

[[record]]
structure = "CONC(=O)c1ccc(C)c(Nc2nc(N)nc(N(C)CC(C)(C)C)c2C#N)c1"
measurement_target = "MAPK14 (human) (UniProt Q16539)"
measurement_unit = "nM"
observed_measurement = 0.05

